Substrate: O=C(O)C(=O)O
method_summary: purified protein
condition_label: pH 4.2 (optimum), 52 mM sodium acetate, 140 mM NaCl, 37 °C, potassium oxalate 0-150 mM, Mn enzyme
outcome_measure: Km (mM)
Record the value in mM, omitting the unit from your answer.

q: Identify Km associated with the protein Oxalate decarboxylase (OxDC) (Bacillus subtilis subsp. subtilis str. 168; H279D) (protein) MKKQNDIPQPIRGDKGATVKIPRNIERDRQNPDMLVPPETDHGTVSNMKFSFSDTHNRLEKGGYAREVTVRELPISENLASVNMRLKPGAIRELHWHKEAEWAYMIYGSARVTIVDEKGRSFIDDVGEGDLWYFPSGLPHSIQALEEGAEFLLVFDDGSFSENSTFQLTDWLAHTPKEVIAANFGVTKEEISNLPGKEKYIFENQLPGSLKDDIVEGPNGEVPYPFTYRLLEQEPIESEGGKVYIADSTNFKVSKTIASALVTVEPGAMRELHWHPNTDEWQYYISGKARMTVFASDGHARTFNYQAGDVGYVPFAMGHYVENIGDEPLVFLEIFKDDHYADVSLNQWLAMLPETFVQAHLDLGKDFTDVLSKEKHPVVKKKCSK
a: 6
